- TEST TARGET: thromboxane synthase (Homo sapiens)
- Construct: Human platelet microsomes were used
- Sequence (P24557 whole entry): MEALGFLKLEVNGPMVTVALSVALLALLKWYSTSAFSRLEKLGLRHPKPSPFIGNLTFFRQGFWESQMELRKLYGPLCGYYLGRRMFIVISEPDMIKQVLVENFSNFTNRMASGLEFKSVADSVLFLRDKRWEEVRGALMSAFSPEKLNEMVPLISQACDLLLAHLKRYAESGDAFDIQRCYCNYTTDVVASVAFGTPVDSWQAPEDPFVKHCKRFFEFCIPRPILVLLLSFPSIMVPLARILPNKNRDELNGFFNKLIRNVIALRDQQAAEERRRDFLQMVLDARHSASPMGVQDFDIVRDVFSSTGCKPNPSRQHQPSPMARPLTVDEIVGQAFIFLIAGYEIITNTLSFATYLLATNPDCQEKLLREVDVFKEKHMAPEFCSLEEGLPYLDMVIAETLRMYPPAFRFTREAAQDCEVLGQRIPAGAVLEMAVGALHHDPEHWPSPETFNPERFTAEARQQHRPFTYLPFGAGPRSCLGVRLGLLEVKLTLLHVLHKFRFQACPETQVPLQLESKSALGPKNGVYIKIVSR
- ASSAY INFO: Test of thromboxane synthase inhibitory activity in vitro (thromboxane B2 production, platelet microsomes)
- TEST CONTEXT: prostaglandin H2 substrate, read-out: TxSI IC50 (inhibition of production of thromboxane B2)
PROPERTY NAME: IC50 (nM)
Kindly answer with a numeric value in nM, unit omitted.

Look up and report IC50, with thromboxane synthase (Homo sapiens) as system, for NC(=O)N(O)CC1=Cc2cc(Cc3cccnc3)ccc2OC1 [Compound (I)]
300
